Recorded measurements of growth, one per entry
- System: SK-MEL-28 melanoma
- assaySummary: NCI-60 one-dose screen, 48 h (100 = growth as untreated, 0 = no growth, -100 = all killed)
- testSettings: 10 µM unless noted
Compounds without any hit were thinned out: in the full panel of roughly 83,000, 20% have a hit. Calls of active or inactive are those of the source. How the source made its calls: active means growth percent below 10; inactive means the rest.

| compound | targetEntity | growth |
| --- | --- | --- |
| c1cnc2nc3c(cc2c1)oc1ccccc13 | SK-MEL-28 melanoma | 111% (inactive) |
| CS(=O)(=O)c1ccc(-c2cc(-c3nnc(SCC(=O)Nc4ccc(C(=O)/C=C/c5ccc(Cl)cc5)cc4)n3-c3ccccc3)c3ccccc3n2)cc1 | SK-MEL-28 melanoma | 103% (inactive) |
| Cc1cccc(Oc2ccc(Nc3ncnc4ccc(NC(=O)CN(C)C)cc34)cc2Cl)c1 | SK-MEL-28 melanoma | 48.1% (inactive) |
| CCn1cc(C2NC(=O)c3ccccc3N2)c2cccc(C)c21 (stereo not given) | SK-MEL-28 melanoma | 56.5% (inactive) |
| COc1ccc(C(=O)c2cc3c(N)c(C(=O)Nc4cccc(OC)c4)sc3nc2C)cc1 | SK-MEL-28 melanoma | 56.7% (inactive) |
| O=c1[nH]nc(-c2ccc(Cl)cc2)cc1Cc1cccc([N+](=O)[O-])c1 | SK-MEL-28 melanoma | 109% (inactive) |
| Cc1ccc(/C=C/C(=O)c2ccc(N)cc2)c(C)c1 | SK-MEL-28 melanoma | 105% (inactive) |
| OC(c1ccccc1)c1ccccn1 (stereo not given) | SK-MEL-28 melanoma | 107% (inactive) |
| Cc1ccccc1CNc1ccc(N2CCOCC2)cc1 | SK-MEL-28 melanoma | 99.8% (inactive) |
| CC(C)Cc1ccc(C(C)C(=O)NCc2ccc(Cn3c(=O)sn(-c4ccc(Cl)cc4)c3=O)cc2)cc1 (stereo not given) | SK-MEL-28 melanoma | 77% (inactive) |

----------
- Tested on: TK-10 renal
- assaySummary: NCI-60 one-dose screen, 48 h (100 = growth as untreated, 0 = no growth, -100 = all killed)
- testSettings: 10 µM unless noted
Compounds without any hit were thinned out: in the full panel of roughly 83,000, 20% have a hit.
Kind request: treat 70% as inclusive, so growth at 70% or higher is Y, anything lower is N.

| moleculeSmiles | classification |
| --- | --- |
| FC(F)(F)Oc1cccc(-c2cc(NCCCCCCNc3cc(-c4cccc(OC(F)(F)F)c4)nc4ccc(N5CCCC5)cc34)c3cc(N4CCCC4)ccc3n2)c1 | N |
| Cc1n[nH]c(C)c1-c1c(C)n[nH]c1C | N |
| CO[C@@H]1[C@H](N(C)C(=O)c2ccccc2)C[C@@H]2O[C@]1(C)n1c3ccccc3c3c4c(c5c6ccccc6n2c5c31)C(=O)NC4=O | N |
| O=C(Nc1ccccc1)Oc1ccccc1-c1ccccc1 | Y |
| COc1ccccc1OCC(=O)N1CCCCCC1 | Y |
| COc1ccc(-c2nc(N/N=C/c3c[nH]c4ccccc34)nc(N3CCOCC3)c2C#N)cc1 | Y |
| Cn1c(COC(=O)NCCc2ccccn2)nc2c(N3CCOCC3)nc(Cl)nc21 | N |
| CN1CCN(c2cc(F)c(NC3=C(Cl)C(=O)c4ncccc4C3=O)c(F)c2)CC1 | N |

----------
growth values for the molecules below.
- Tested on: SR leukemia
- assaySummary: NCI-60 one-dose screen, 48 h (100 = growth as untreated, 0 = no growth, -100 = all killed)
- testSettings: 10 µM unless noted
The panel holds about 83,000 compounds, 20% with a hit somewhere; the sample as a whole holds those more often.
measureName: growth (%)

| molecule | unitOfMeasurement | val |
| --- | --- | --- |
| C[C@H]1[C@H](C)CC[C@]2(CO)CC[C@]3(C)C(=CC[C@@H]4[C@@]5(C)CCCNC(C)(C)[C@@H]5CC[C@]43C)[C@H]12 | % | -49.9 |
| COc1cc2ncnc(Nc3ccc(C(=O)/C=C/c4ccc(C(F)(F)F)cc4F)cc3)c2cc1OC | % | 63.4 |
| C#CCn1cc(C=C2C(=O)NC(=S)NC2=O)c2cc(Cl)ccc21 | % | 4.92 |
| Cc1ccccc1C(c1ccccc1)c1ccccc1C | % | 104 |
| O=S(=O)(NCCCNc1nccc(-c2c(-c3cccc(O)c3)nc3occn23)n1)c1ccc(Br)cc1 | % | 89.8 |
| CCCCCCOc1ccc(C(=N)N(CCCC)CCCC)c2ccccc12 | % | -46.9 |
| O=C1Nc2ccccc2/C1=N/c1nc(-c2ccc(Cl)cc2)cs1 | % | 60.1 |
| COc1cc(C(=O)/C=C/c2c(C)n([O-])c3ccc(Cl)cc3[n+]2=O)cc(OC)c1OC | % | -5.8 |
| CC(=O)c1c(-c2ccc(OC(F)(F)F)cc2)nc2ccccn12 | % | 116 |
| Clc1cc(Cl)cc(N2N=C(c3cccc(Nc4ccncc4)c3)CC2c2ccccc2)c1 (stereo not given) | % | 5.16 |

----------
- System: MDA-MB-231 breast
- assaySummary: NCI-60 one-dose screen, 48 h (100 = growth as untreated, 0 = no growth, -100 = all killed)
- testSettings: 10 µM unless noted
The panel holds about 83,000 compounds, 20% with a hit somewhere; the sample as a whole holds those more often.
Readings of growth for the listed compounds

| compound | growth [%] |
| --- | --- |
| CCCCCCCCCCN=C(N)N=C(N)N | 38.8 |
| O=C(N/N=C/c1ccncc1)c1ccccc1Nc1cccc(C(F)(F)F)c1 | 79.8 |
| CCN(CC)CCCC(C)Nc1c2c(nc3ccc(OC)cc13)CCCC2 (stereo not given) | 79.8 |
| O=C(OCc1nc2nc(Cl)nc(N3CCOCC3)c2[nH]1)n1ccnc1 | -6.91 |
| C=C1C(=O)O[C@H]2[C@H]1CC/C(CNC(=O)/C=C/c1ccccc1F)=C\CC[C@@]1(C)O[C@@H]21 | 16.9 |

----------
- Tested on: NCI-H522 lung
- assaySummary: NCI-60 one-dose screen, 48 h (100 = growth as untreated, 0 = no growth, -100 = all killed)
- testSettings: 10 µM unless noted
The panel holds about 83,000 compounds, 20% with a hit somewhere; the sample as a whole holds those more often.
Class Y: growth at least 80%. Class N: growth below 80%.

| compound | classification |
| --- | --- |
| CC(=O)[C@@H]1CC[C@]2(C(=O)n3ccnc3)CC[C@]3(C)[C@H](CC[C@@H]4[C@@]5(C)Cc6c([nH]c7ccccc67)C(C)(C)[C@@H]5CC[C@]43C)[C@@H]12 | Y |
| CC(C)Sc1nc(NN)c(C#N)c(-c2ccccc2)n1 | Y |
| COC(=O)C(c1ccccc1)C(CC(=O)c1ccccc1)c1ccccc1 (stereo not drawn) | N |
| COc1ccc(Cn2nc(-c3cc(OC)c(OC)c(OC)c3)c3c2CCc2cnoc2-3)cc1OC | N |
| CC[N+](CC)(CCCC(C)[N+]1(Cc2ccccc2)C(C)=CC=C1C)Cc1ccccc1 (stereo not drawn) | N |

----------
- Tested on: BT-549 breast
- assaySummary: NCI-60 one-dose screen, 48 h (100 = growth as untreated, 0 = no growth, -100 = all killed)
- testSettings: 10 µM unless noted
This is part of a sample that, as a whole, favours compounds with a hit. Of some 83,000 tested, about 20% had one in any assay.
The following compounds are shown together with reported growth values.

| compound | growth (%) |
| --- | --- |
| C=C(C)[C@@H]1CC[C@]2(C(=O)NCCCN(CCC#N)CCC#N)CC[C@]3(C)[C@H](CC[C@@H]4[C@@]5(C)CCC(=O)C(C)(C)[C@@H]5CC[C@]43C)[C@@H]12 | 95.5 |
| S=c1[nH]cccc1-c1nnc2n1Nc1nc3ccc(Cl)cc3cc1CS2 | 96.3 |
| COc1cc2nc(-c3ccc(C(F)(F)F)cc3)cc(OCCCN3CCC(O)CC3)c2cc1OC | 26.5 |
| Clc1cc(Cl)cc(N2N=C(c3cccc(Nc4ccncc4)c3)CC2c2ccc3c(c2)OCO3)c1 (centres undefined) | 93.8 |

----------
- Tested on: OVCAR-3 ovarian
- assaySummary: NCI-60 one-dose screen, 48 h
- testSettings: 10 µM unless noted
The panel holds about 83,000 compounds, 20% with a hit somewhere; the sample as a whole holds those more often. Active and inactive are the calls of the source. How the source made its calls: active means growth percent below 10; inactive means the rest.
Classes used: active, inactive

| moleculeSmiles | classification |
| --- | --- |
| COc1cccc(CCC(=O)c2cc3c(N)c(C(=O)Nc4ccccc4)sc3nc2C)c1 | inactive |
| CC(=O)c1c[nH]c2ccc(-c3ccnc(Nc4ccc(NC(=O)C5CCCC5)c(CN5CCOCC5)c4)n3)cc12 | active |
| COc1ccc(OC)c(/C=C/[C@H]2O[C@@H](C)[C@H](O)[C@@H]2O)c1 | inactive |
| O=S(=O)(c1ccc(N/N=C\c2ccccc2)cc1)c1ccc(N/N=C/c2ccccc2)cc1 | inactive |
| NC(=O)c1cccc(-c2ccccc2N2CCCCC2)c1 | inactive |

Where these numbers come from: PubChem BioAssay (NCI)
